Can you tell me GI50 for the items I'm about to list?
Tested on: SN12C renal
Experiment: NCI tumour cell line growth inhibition, 48 h

Fill in the blank: the reported GI50 of CCN(CC)c1ccc(C=C2C(=O)NC(=S)NC2=O)cc1 is ____. 7.24 µM

Fill in the blank: the reported GI50 of N/C(=N\O)c1cn(C2OC(CO)C(O)C2O)c2ncnc(N)c12 (centres undefined) is ____. 0.152 µM

Fill in the blank: the reported GI50 of C=C(CN1CCc2ccccc2C1)c1ccc(C(=O)Nc2cccc(N)c2)cc1 is ____. 18.8 µM

Fill in the blank: the reported GI50 of CCCCCCCCCCCCNC(=O)N[C@H](C(=O)N[C@H]1/C=C/OCCNC(=O)/C=C/[C@H](C(C)C)NC1=O)C(C)C is ____. 23.6 µM

Fill in the blank: the reported GI50 of COc1cc2nc(NC3CCC3)nc(NC3CCN(C(C)C)CC3)c2cc1OC is ____. 3.92 µM

Fill in the blank: the reported GI50 of CCC[CH2][Sn]1([CH2]CCC)[O]C(=O)c2cccnc2[S]1 is ____. 3.8 µM

Fill in the blank: the reported GI50 of COc1cc(-c2nn(-c3cccc(NC(=O)NCCNC(=O)c4ccccc4)c3)cc2-c2ccncc2)ccc1Cl is ____. 0.556 µM

Fill in the blank: the reported GI50 of O[C@@H]1CCCCN1Cc1cc2cc3c(cc2c2cc(OCc4ccccc4)ccc12)OCO3 is ____. 1.42 µM

Fill in the blank: the reported GI50 of CCOc1ccc(-c2nc3ccc(-c4nc5ccc(N6CCN(C)CC6)cc5[nH]4)cc3[nH]2)cc1OCC is ____. 1.94 µM

----------
System: SK-OV-3 ovarian
Test: NCI tumour cell line growth inhibition, 48 h; in the data active = GI50 below about 0.43 µM; inactive = the rest
// allowed return values: active, inactive

Lab log entry: CCN(CC)CCCC(C)Nc1ccnc2cc(OC)ccc12 (stereo not given) — outcome as called in the assay? inactive

Lab log entry: CCn1nc(C#Cc2c(C)ccc3c(Nc4ccc(Cl)cc4)nccc23)c2c(N)ncnc21 — outcome as called in the assay? inactive

Lab log entry: CN1CC[C@H](N(C)C(=O)N2CC(c3cc(F)ccc3F)=C[C@@]2(CO)c2ccccc2)[C@H](F)C1 — outcome as called in the assay? active

Lab log entry: CN(C)CCCn1c2c(c3ccc(N4CCNCC4)cc3c1=O)C(=O)c1ccccc1-2 — outcome as called in the assay? inactive

Lab log entry: CN(C)c1ccc(-c2cc(-c3cccc(NS(C)(=O)=O)c3)nc(N)c2C#N)cc1 — outcome as called in the assay? active

Lab log entry: CC1(C)CCC(c2ccc(Cl)cc2)=C(CN2CCN(c3ccc(C(=O)NS(=O)(=O)c4ccc(N[C@H](CCN5CCOCC5)CSc5ccccc5)c(S(=O)(=O)C(F)(F)F)c4)cc3)CC2)C1 — outcome as called in the assay? inactive

Lab log entry: COc1ccc2c(c1)c(-c1nc(-c3cn(C)c4ncccc34)cs1)cn2CCCCN1CCCCC1 — outcome as called in the assay? inactive

Lab log entry: COc1cc(-c2nn(-c3cccc(NC(=O)NCCNC(=O)c4ccccc4)c3)cc2-c2ccncc2)ccc1Cl — outcome as called in the assay? inactive

Lab log entry: CC1SC(c2ccc(OCc3ccccc3)cc2)N(NC(=O)C(O)(c2ccccc2)c2ccccc2)C1=O (stereo not given) — outcome as called in the assay? inactive

Lab log entry: CCN(CC)c1ccc(C=C2C(=O)NC(=S)NC2=O)cc1 — outcome as called in the assay? inactive

----------
System: SN12C renal
Experiment: NCI tumour cell line growth inhibition, 48 h
Can you tell me TGI for the items I'm about to list?

Fill in the blank: the reported TGI of N/C(=N\O)c1cn(C2OC(CO)C(O)C2O)c2ncnc(N)c12 (stereo unspecified) is ____. > 36.1 µM

Fill in the blank: the reported TGI of COc1cc(C(=O)N[C@@H]2CCCN(C)C2)ccc1Nc1ncc2c(n1)N(C1CCCC1)CC(C)(C)C(=O)N2C is ____. 16.6 µM

Fill in the blank: the reported TGI of COC(=O)[C@@H](N1C(=O)c2ccccc2C1=O)C1(C)CC(Cl)=NO1 (stereo partly specified) is ____. > 100 µM

Fill in the blank: the reported TGI of C[C@@H](NC(=O)Nc1cccc(C(=O)Nc2cc(C(C)(C)C)ccc2C(=O)O)n1)c1ccccc1 is ____. > 100 µM

Fill in the blank: the reported TGI of O=C(NC(=Nc1ccccc1)SCCSC(=Nc1ccccc1)NC(=O)c1ccccc1)c1ccccc1 is ____. > 100 µM

Fill in the blank: the reported TGI of COc1cc(Nc2nc(NS(=O)(=O)c3cc(C)c(Cl)cc3S)n[nH]2)cc(OC)c1OC is ____. > 100 µM

Fill in the blank: the reported TGI of BrC(/C=N/Nc1nnc(-c2ccccc2)c(-c2ccccc2)n1)C(Br)c1ccccc1 (stereo unspecified) is ____. > 100 µM

Fill in the blank: the reported TGI of C[C@H](O)CCC(=O)c1ccoc1 is ____. > 100 µM

Fill in the blank: the reported TGI of CCn1nc(C#Cc2c(C)ccc3c(Nc4ccc(Cl)cc4)nccc23)c2c(N)ncnc21 is ____. > 100 µM

Fill in the blank: the reported TGI of C/C=C/C(C/C=C(\C)CO[Si](C)(C)C(C)(C)C)O[Si](C)(C)C(C)(C)C (stereo unspecified) is ____. > 100 µM

Fill in the blank: the reported TGI of N#Cc1nc(CCC(C(=O)O)N2C(=O)c3ccccc3C2=O)oc1N (stereo unspecified) is ____. > 100 µM

Fill in the blank: the reported TGI of Cc1cccc2c(=O)c3cccc(CC(=O)O)c3oc12 is ____. > 100 µM

Fill in the blank: the reported TGI of CC1(C)OC(COP2OCCO2)[C@H](COP2OCCO2)O1 (stereo partly specified) is ____. > 100 µM

Fill in the blank: the reported TGI of COc1cccc(O)c1-c1cc(=O)c2c(O)c(OC)c(OC)c(OC)c2o1 is ____. 93.4 µM

Fill in the blank: the reported TGI of c1c[nH]c(CN2CCN(Cc3ncc[nH]3)CC2)n1 is ____. > 100 µM

Fill in the blank: the reported TGI of Cc1ccc(CNc2ccc(Cl)cc2NCc2ccc(C)c(O)c2)cc1O is ____. 14 µM

Fill in the blank: the reported TGI of CCc1cccc(CC)c1NC1=CC(=O)C(=O)c2ccccc21 is ____. 76.5 µM

Fill in the blank: the reported TGI of O=C1C/C(=C\c2ccccc2)C(=O)c2ccccc2N1 is ____. 34.8 µM

Fill in the blank: the reported TGI of CC(=O)NNc1nc(C)c(C(=O)NNC(=O)C(=O)Nc2ccc(C)cc2[N+](=O)[O-])s1 is ____. > 100 µM

Fill in the blank: the reported TGI of CC(C)C1CC(CO)(CNc2nc(N)nc(Cl)c2C=O)C1 (stereo unspecified) is ____. 28.5 µM

Fill in the blank: the reported TGI of CCN(CC)CCN1C(=O)c2cccc3cc(N)cc(c23)C1=O is ____. 27.1 µM

----------
Test system: HS 578T breast
Experiment: NCI tumour cell line growth inhibition, 48 h
Can you tell me TGI for the items I'm about to list?
Form entry: value (µM) — number only.

Fill in the blank: the reported TGI of C=CN(C(=O)N1CCN(c2cc3c(cc2F)c(=O)c(C(=O)O)cn3C2CC2)CC1)c1nc(-c2ccc(C)cc2)cs1 is ____. 21.3

Fill in the blank: the reported TGI of CN(C)CCCn1c2c(c3ccc(N4CCNCC4)cc3c1=O)C(=O)c1ccccc1-2 is ____. 4.38

Fill in the blank: the reported TGI of COc1cc(C(=O)N[C@@H]2CCCN(C)C2)ccc1Nc1ncc2c(n1)N(C1CCCC1)CC(C)(C)C(=O)N2C is ____. 19.9

Fill in the blank: the reported TGI of CCOC(=O)n1c(=O)nc2c3c(ncn21)Oc1c(c(-c2ccccc2)nn1-c1ccccc1)C3c1ccc(Cl)cc1 (stereo not given) is ____. 3.37

----------
Test system: A498 renal
Experiment: NCI tumour cell line growth inhibition, 48 h; in the data active = GI50 below about 0.43 µM; inactive = the rest
// allowed return values: Y = active, N = inactive

Lab log entry: COc1ccc(-c2cc(-c3ccc(Cl)cc3)c(C#N)c(=O)n2CCCCCC(=O)Nc2ccccc2N)cc1 — outcome as called in the assay? N

Lab log entry: O=c1[nH]c2c(ccc3cnccc32)c2c1CCC2 — outcome as called in the assay? Y

Lab log entry: COc1cc(-c2nn(-c3cccc(NC(=O)NCCNC(=O)c4ccccc4)c3)cc2-c2ccncc2)ccc1Cl — outcome as called in the assay? N

Lab log entry: NC1=Nc2cc(OCCCCN3Cc4ccccc4C3)c(OCC3CC3)cc2C12CCCC2 — outcome as called in the assay? N

Lab log entry: Cc1ccc(CNc2ccc(Cl)cc2NCc2ccc(C)c(O)c2)cc1O — outcome as called in the assay? N
